Source listed as paper PMC5378956.

Assay info: Single-dose pharmacokinetics, IV and oral
Details: male, CD-1, mouse, in vivo, po, 10 mg kg-1
Assay readout: concentration at 8 h (ng/mL)
Number in ng/mL, nothing else.

The recorded concentration at 8 h for entry Nc1ccc(N2CCOCC2)c2nonc12 equals 3.8

----------
Target of assay: UniProtKB P42574
Sequence (P42574 29-175 limits assumed): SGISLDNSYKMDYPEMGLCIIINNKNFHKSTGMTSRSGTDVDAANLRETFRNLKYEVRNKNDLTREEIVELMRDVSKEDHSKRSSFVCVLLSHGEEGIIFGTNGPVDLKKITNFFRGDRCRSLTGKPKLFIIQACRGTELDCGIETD
Sequence (P42574 176-277 limits assumed): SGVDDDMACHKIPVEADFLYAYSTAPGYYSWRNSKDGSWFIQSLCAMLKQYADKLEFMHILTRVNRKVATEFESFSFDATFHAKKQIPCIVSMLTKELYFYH
Assay info: IC50 assay with recombinant caspase-3
Details: mean±s.d.
Assay readout: IC50 (µM)
Output spec: scalar in µM, unitless text.

[
  {
    "Compound": "CCN(CC)c1ccc(CN2CCc3nc(C)[nH]c(=O)c3C2)c(OC)c1 [compound 64]",
    "IC50 (µM)": 15.4
  },
  {
    "Compound": "Cn1c(=O)[nH]c(=O)c2c1nc(S)n2CC(O)COc1ccc(Cl)cc1 (stereo not shown) [compound 38]",
    "IC50 (µM)": 29.7
  },
  {
    "Compound": "N#CSc1cnc(N)s1 [compound 10]",
    "IC50 (µM)": 44.6
  }
]

In plain terms, Nc1ccc(N2CCOCC2)c2nonc12 [compound 11] has a documented IC50 of 31.9
